Biological target: Induced myeloid leukemia cell differentiation protein Mcl-1 (Homo sapiens) (UniProt Q07820)
Sequence (Q07820 whole entry, looked up): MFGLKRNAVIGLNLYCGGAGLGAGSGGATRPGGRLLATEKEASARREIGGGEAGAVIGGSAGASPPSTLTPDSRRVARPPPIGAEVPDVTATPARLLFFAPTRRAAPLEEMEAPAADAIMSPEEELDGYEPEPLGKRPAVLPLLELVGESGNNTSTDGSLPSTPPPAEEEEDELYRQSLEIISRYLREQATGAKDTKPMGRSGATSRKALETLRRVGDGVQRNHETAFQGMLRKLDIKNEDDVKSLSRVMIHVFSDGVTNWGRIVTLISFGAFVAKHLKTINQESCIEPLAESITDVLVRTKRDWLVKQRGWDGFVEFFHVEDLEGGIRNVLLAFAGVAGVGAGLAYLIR
Assay: Mcl-1/Noxa binding inhibitor potency, dose response, biochemical, TR-FRET (AID 1417)
Conditions: Mcl-1/Noxa peptide interaction, cell-free TR-FRET (terbium/rhodamine), 2 h; measured here: absolute IC50
Assign IC50 to each entry below.
Answers are plain numbers, in µM.

# example entries with known answers
# IC50 (molecule: COc1cccc2c(=S)c(CCC(C)=O)c(C)[nH]c12 ) is 0.718

IC50 reading for Cc1ccc2[nH]c(O)c(N=Nc3nc4ccccc4s3)c2c1 : 2.48

Quick note, IC50 for O=[N+]([O-])c1ccc(-c2c[nH]c(=S)[nH]2)cc1 landed at 0.8

Each of the following entries comes with a recorded value; kindly state IC50 for each.
1. CN(C)c1ccc(/C=c2\sc3nc(-c4ccccc4)nn3c2=O)cc1
2. Cc1cc(NS(=O)(=O)c2ccc(Nc3nc(-c4sc(NC(=O)c5ccccc5)nc4C)cs3)cc2)no1

Completion:
1: 8.8; 2: 1.77

* * *

Biological target: Induced myeloid leukemia cell differentiation protein Mcl-1 (Homo sapiens)
Test: Mcl-1/Noxa binding inhibitor potency, dose response, biochemical, TR-FRET (AID 1417)
Conditions: Mcl-1/Noxa peptide interaction, cell-free TR-FRET (terbium/rhodamine), 2 h; measured here: absolute IC50
Give pIC50 for every item shown.
One number for each entry, as −log10 of the molar value.

The value of pIC50 recorded for O=[N+]([O-])c1ccc2[nH]c(O)c(N=NC(=S)Nc3cccnc3)c2c1 when tested on Induced myeloid leukemia cell differentiation protein Mcl-1 (Homo sapiens) reads 5.05

Summary line: COCCCNC(=O)/C(C#N)=C/c1ccc(OCC(=O)O)c(OC)c1 , Induced myeloid leukemia cell differentiation protein Mcl-1 (Homo sapiens), reported pIC50 = 5.46

Entry N#Cc1c(NC(=O)c2cccc(S(=O)(=O)Nc3ccc(C(=O)O)cc3)c2)sc2c1CCCC2 , tested on Induced myeloid leukemia cell differentiation protein Mcl-1 (Homo sapiens), has a reported pIC50 of 5.02

Continuing:
Observed pIC50 on Induced myeloid leukemia cell differentiation protein Mcl-1 (Homo sapiens), entry COc1cccc2c(C)c(C(=O)O)[nH]c12 , equals 5.70

* * *

Target: Induced myeloid leukemia cell differentiation protein Mcl-1 (Homo sapiens)
Assay: Mcl-1/Noxa binding inhibitor potency, dose response, biochemical, TR-FRET (AID 1417)
Settings: Mcl-1/Noxa peptide interaction, cell-free TR-FRET (terbium/rhodamine), 2 h; measured here: absolute IC50
Can you tell me pIC50 for the items I'm about to list?
Answers are plain numbers, as −log10 of the molar value.

Looking up O=[N+]([O-])c1ccc(-c2cc(-c3ccc(Cl)cc3)n[nH]2)cc1 , I see its pIC50 listed as 5.25

According to the records, this molecule O=C(CN1C(=O)/C(=C2\SC(=S)N(C3CCS(=O)(=O)C3)C2=O)c2ccccc21)Nc1ccc(F)cc1 (centres undefined) displays pIC50 of 5.68

Input CCOC(=O)c1cc(-c2ccco2)nc2c1c(C)nn2-c1cccc(Cl)c1 . Output pIC50: 5.63

Recorded result, O=C(CCO)c1ccc(O)cc1 , pIC50: 5.50

Summary for this molecule, Cc1cc(N/N=C/c2ccc(O)c(C)c2O)nc(-c2ccccc2O)n1 : pIC50 is 5.44

Summary for this molecule, O=c1oc2ccccc2cc1-c1csc(Nc2ccc(O)cc2)n1 : pIC50 is 6.14

The reported pIC50 of the molecule O=C1/C(=C\c2ccccn2)SC(=S)N1c1ccc(S(=O)(=O)Nc2nccs2)cc1 was 5.57

Proceed to the following item.
Noted for CNC(=S)Nc1sc2c(c1C(=O)OC)CCC2 : its pIC50 reads 5.88

* * *

Field: pIC50. Provide a value for each of the compounds that follow.
Target: Induced myeloid leukemia cell differentiation protein Mcl-1 (Homo sapiens) (UniProt Q07820)
Assay: Mcl-1/Noxa binding inhibitor potency, dose response, biochemical, TR-FRET (AID 1417)
Conditions: Mcl-1/Noxa peptide interaction, cell-free TR-FRET (terbium/rhodamine), 2 h; measured here: absolute IC50
Answers are plain numbers, as −log10 of the molar value.

These recorded examples may help you get a feel for the data.
get_value(item= Cc1cc(C(=O)N/N=C/c2ccc(O)c([N+](=O)[O-])c2)c(C)n1-c1ccc(F)cc1 , readout=pIC50) returns 5.63

Quick note, pIC50 for Oc1ccc(Br)cc1-c1cc(-c2ccc(Cl)cc2)n[nH]1 landed at 5.77

Summary for this compound, CN1CCc2cccc3c2[C@@H]1Cc1ccc(O)c(O)c1-3 : pIC50 is 6.08

Looking up C/C(=N\NC(=O)c1cccc(N/N=C(\C)c2ccco2)c1)c1ccco1 , I see its pIC50 listed as 5.54

Reported pIC50 of Cc1cccc(OCCCC(=O)Nc2ccc(N(C)C)cc2)c1 : 5.75

Documented pIC50 of O=C(O)CCn1cc(C=C2C(=O)NC(=S)NC2=O)c(-c2cccc(Br)c2)n1 : 5.66

pIC50 for COc1cccc(C(=O)Nc2ccc3c(c2)C(=O)c2ccccc2C3=O)c1 is 5.67

// recorded pIC50 for COc1ccc(/C=C/C(=O)NC(=S)Nc2cc([N+](=O)[O-])ccc2O)cc1OC : 5.95

Provide pIC50 for all items below, preserving their order.
1. c1coc(-c2nc3ccccc3nc2-c2ccco2)c1
2. Oc1ccccc1C1Nc2cccc3cccc(c23)N1
3. COc1ccc(C(=O)Nc2cccc(/C=C(\CCC(=O)O)c3nc4ccccc4s3)c2)cc1
4. N=C1/C(=C\c2ccc(-c3cccc(C(=O)O)c3)o2)C(=O)N=C2SC=C(c3ccccc3)N12
5. Oc1c(Br)cc(C=Nc2ccc3nc(-c4ccccc4)[nH]c3c2)c(O)c1Br

Completion:
[5.29, 5.18, 5.40, 5.89, 6.23]

* * *

Target: Induced myeloid leukemia cell differentiation protein Mcl-1 (Homo sapiens) (UniProt Q07820)
Test: Mcl-1/Noxa binding inhibitor potency, dose response, biochemical, TR-FRET (AID 1417)
Conditions: Mcl-1/Noxa peptide interaction, cell-free TR-FRET (terbium/rhodamine), 2 h; measured here: absolute IC50
READOUT_TYPE: IC50 (µM)
Answers are plain numbers, in µM.

Give me IC50 for each of these molecules, listed below.
1. O=c1c(Cl)c(N/N=C/c2ccc(Cl)cc2)cnn1-c1ccccc1
2. Cc1cc(C)c2oc(C(=O)Nc3ccc(S(=O)(=O)Nc4nccs4)cc3)cc(=O)c2c1

Completion:
1: 4.42; 2: 4.58

* * *

I'd appreciate it if you could supply IC50 values for the items below.
Target: Induced myeloid leukemia cell differentiation protein Mcl-1 (Homo sapiens)
Experiment: Mcl-1/Noxa binding inhibitor potency, dose response, biochemical, TR-FRET (AID 1417)
Conditions: Mcl-1/Noxa peptide interaction, cell-free TR-FRET (terbium/rhodamine), 2 h; measured here: absolute IC50

Past entries and their recorded results:
Simply: CC(C)(C)C1=CC=C(C(C)(C)C)C(=O)C1=O , Induced myeloid leukemia cell differentiation protein Mcl-1 (Homo sapiens), IC50 = < 400 nM

Kindly note: Induced myeloid leukemia cell differentiation protein Mcl-1 (Homo sapiens), CCC(C)NCCCOc1c(C)cc(C)cc1Br (stereo not given) , IC50 value reported: > 54000 nM

Measured IC50 (Induced myeloid leukemia cell differentiation protein Mcl-1 (Homo sapiens)), entry CCOC(=O)C1CCN(c2nc(N)c3c(N)nc(SCC(=O)O)cc3c2C#N)CC1 : < 400 nM

Bench note, Induced myeloid leukemia cell differentiation protein Mcl-1 (Homo sapiens): entry Cc1ccc(NC(=O)CN2C(=O)N/C(=C/c3cccn3-c3ccc(C(=O)O)cc3)C2=O)cc1 , its IC50 = > 54000 nM

For CN=c1scc(-c2cccs2)n1/N=C/c1ccc(O)c(O)c1O on Induced myeloid leukemia cell differentiation protein Mcl-1 (Homo sapiens), measured IC50 was < 400 nM

# per-item lookup of IC50; items listed below
1. O=C(CN1C(=O)/C(=C2\SC(=S)N(C3CCS(=O)(=O)C3)C2=O)c2ccccc21)Nc1ccccc1 (stereo not given)
2. COc1ccc(NC(=S)NNc2ccc(S(=O)(=O)Nc3ccccc3C(=O)O)cc2[N+](=O)[O-])cc1

Completion:
1: < 400 nM; 2: > 54000 nM

* * *

For each of the molecules below, state its pIC50.
Molecular target: Induced myeloid leukemia cell differentiation protein Mcl-1 (Homo sapiens) (UniProt Q07820)
Experiment: Mcl-1/Noxa binding inhibitor potency, dose response, biochemical, TR-FRET (AID 1417)
Details: Mcl-1/Noxa peptide interaction, cell-free TR-FRET (terbium/rhodamine), 2 h; measured here: absolute IC50
Give bare numbers, as −log10 of the molar value.

Completed entries (count: 5):
pIC50 reported for this molecule Cc1cc(N(CCO)CCO)ccc1C(c1ccc(N(CCO)CCO)cc1C)c1ccccc1Cl : 5.95

GET /value?item= Cc1ccc(-n2cccc2/C=C2/C(=N)N3C(=NC2=O)SN=C3S(C)(=O)=O)cc1Cl &field=pIC50 returns 5.96

Sample CCCSC1=N/C(=C\C=C\c2ccco2)C(=O)S1 ; pIC50 observed: 5.51

pIC50 for O=C1/C(=C/c2ccc(O)c(O)c2)Oc2cc(O)ccc21 is 5.94

The molecule listed as Cc1cc(/C=C2/C(=O)NN(c3ccccc3)C2=O)c(C)n1-c1cccc(O)c1 has a reported pIC50 of 5.49

Please report pIC50 for every entry that follows.
1. CCn1c(SCc2nc3sc(C(=O)O)c(C)c3c(=O)[nH]2)nc2ccccc21
2. CC1=NN(C(N)=S)C(=O)C1N=Nc1ccc(O)cc1 (stereo unspecified)

Completion:
[5.48, 4.95]
